Format: physicochemical
applied-conditions: SGF with pepsin, pH 1.5, 37° C., 0.5 mM; time 30 min
Recorded Condition 1 Conversion (%) values for a group of compounds are listed next.
Kindly answer with a numeric value in %, unit omitted.

Recorded Condition 1 Conversion (%), per entry:
COc1ccc([C@@]23CCC(=NOCCOc4ccccc4)C[C@@H]2N(C)CC3)cc1OC [Compound 234]: 0
COc1ccc([C@@]23CCC(=NNC(=O)CC[C@H](NC(=O)c4ccc(NCc5cnc6nc(N)nc(O)c6n5)cc4)C(=O)O)C[C@@H]2N(C)CC3)cc1OC [Compound 172]: 100

Q: Fill in the blank: the reported Condition 1 Conversion (%) of COc1ccc([C@@]23CCC(=NNC(=O)C45CC6CC(CC(C6)C4)C5)C[C@@H]2N(C)CC3)cc1OC [Compound 271] is ____.
Result: 100

Q: Now give it for COc1ccc([C@@]23CCC(=NNC(C)=O)C[C@@H]2N(C)CC3)cc1OC [Compound 222] too.
Result: 100

Q: Further, for COc1ccc([C@@]23CCC(OC(=O)CC(C)C)=C[C@@H]2N(C)CC3)cc1OC [Compound 334] ?
Result: 0

Q: Query COc1ccc([C@@]23CCC(=NOCCC45CC6CC(CC(C6)C4)C5)C[C@@H]2N(C)CC3)cc1OC [Compound 276] next
Result: 0

Q: And the next one, COc1ccc([C@@]23CCC(=NO)C[C@@H]2N(C)CC3)cc1OC (mixture of isomers) [Compound 037] ?
Result: 82.3

Q: Same question, COc1ccc([C@]23CCN(C)[C@H]2CC2(CC3)OCC(C(=O)O)O2)cc1OC (stereo partly drawn) [Compound 214] this time
Result: 0

Q: Another compound to look at: COc1ccc([C@@]23CCC(=NNc4ccc(F)cc4)C[C@@H]2N(C)CC3)cc1OC [Compound 361]
Result: 100

Q: Same for COc1ccc([C@@]23CCC(=NOCC4CC4)C[C@@H]2N(C)CC3)cc1OC [Compound 205]
Result: 4.5

Q: Quick one: COc1ccc([C@@]23CCC(=NOC(C)(C)C)C[C@@H]2N(C)CC3)cc1OC [Compound 199]
Result: 0

Q: Another compound: COc1ccc([C@@]23CCC(=NOCc4cccnc4)C[C@@H]2N(C)CC3)cc1OC [Compound 209]
Result: 0

The reported measurements were obtained from patent US20250051277A1.
